For each entry below, report its IC50 of U87 cell proliferation (BrdU) value.
molecular target: recombinant human HGF (hepatocyte growth factor) (human, UniProt P14210 32-728); assay: cell-based or functional assay
Sequence (P14210 32-728 limits assumed): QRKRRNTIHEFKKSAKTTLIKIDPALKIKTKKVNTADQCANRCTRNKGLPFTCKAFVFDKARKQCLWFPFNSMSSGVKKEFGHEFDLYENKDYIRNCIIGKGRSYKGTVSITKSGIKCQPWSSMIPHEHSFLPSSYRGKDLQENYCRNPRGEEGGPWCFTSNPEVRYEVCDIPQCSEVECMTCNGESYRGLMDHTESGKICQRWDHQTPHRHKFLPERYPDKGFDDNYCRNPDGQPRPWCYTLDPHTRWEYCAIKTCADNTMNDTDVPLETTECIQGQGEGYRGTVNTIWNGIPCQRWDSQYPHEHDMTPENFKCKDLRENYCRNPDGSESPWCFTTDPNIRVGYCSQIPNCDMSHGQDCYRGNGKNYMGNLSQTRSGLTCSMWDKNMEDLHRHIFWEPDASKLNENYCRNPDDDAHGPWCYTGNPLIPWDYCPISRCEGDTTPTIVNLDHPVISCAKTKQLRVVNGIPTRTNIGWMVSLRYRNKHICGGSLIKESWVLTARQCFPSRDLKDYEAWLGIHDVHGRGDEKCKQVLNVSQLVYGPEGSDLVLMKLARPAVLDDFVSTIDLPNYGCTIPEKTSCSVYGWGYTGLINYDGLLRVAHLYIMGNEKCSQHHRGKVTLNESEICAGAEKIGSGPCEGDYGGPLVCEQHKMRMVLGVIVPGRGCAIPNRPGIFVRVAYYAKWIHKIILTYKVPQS
Answers are plain numbers, in nM.

These recorded examples may help you get a feel for the data.
binder="DARPin #33 (designed binder) MRGSHHHHHHGSDLGKKLLEAARAGQDDEVRILMANGADVNAHDYSGFTPLHLAAYYGHLEIVEVLLKHGADVNAFDDWGHTPLHLAARYGHLEIVEVLLKYGADVNAEDTEGYTPLHLAAMDGHLEIVEVLLKNGADVNAQDKFGKTAFDISIDNGNEDLAEILQKLN" result_value=137
binder="DARPin #42 (designed binder) MRGSHHHHHHGSDLGKKLLEAARAGQDDEVRILMANGADVNAKYEDGLTPLHLAAFYGHLEIVEVLLKHGADVNATDAWGHTPLHLAAHYGHLEIVEVLLKYGADVNAIDTLGYTPLHLAANFGHLEIVEVLLKNGADVNAQDKFGKTAFDISIDNGNEDLAEILQKLN" result_value=82

Okay, next one:
Input DARPin #60 (designed binder) MRGSHHHHHHGSDLGMKLLEAARAGQDDEVRILMANGADVNAHDTWGLTPLHLAAFHGHQEIVEVLLKHGADVNAQDFYGKTPLHLAALRGHLEIVEVLLKYGADVNAQDQFGKTAFDISIDNGNEDLAEILQKLN . Output IC50 of U87 cell proliferation (BrdU): 78

Just for reference, patent US20160251404A1 is where these values come from.
